tested on: Mus musculus; assay: Antitumor activity in C57BL/6J mouse model of spontaneous GI-tract tumor Apc-min assessed as mouse survival at 100 mg/kg, po administered daily as suspension and measured at day 82 by Kaplan-Meier method; assay type: functional
property-name: Survival

Before answering, review these 3 worked examples.
Cc1ccc(-c2cc(C(F)(F)F)nn2-c2ccc(S(N)(=O)=O)cc2)cc1 [CELECOXIB]
>82 days
Cc1ccc(-c2ncc(Cl)cc2-c2ccc(S(C)(=O)=O)cc2)cn1 [ETORICOXIB]
>82 days
CC(C)(O)COc1nc(OCCCC(F)(F)F)c(CO)cc1-c1ccc(S(C)(=O)=O)cc1
62.5 days

Continue with the next compound.
### Prompt Form: Entry = CC(C)(O)COc1nc(OCCC(F)(F)F)c(CO)cc1-c1ccc(S(C)(=O)=O)cc1 | System = Mus musculus | Survival = ____
### Response 74 days

====

test: Equilibrium solubility of compound in FASSIF at pH 6.5; format: physicochemical
Could you label it fulfilled if measured solubility thermodynamic is 100 µM or higher, and not fulfilled otherwise?

CCCCOc1nc(OCC(C)(C)O)c(-c2ccc(S(C)(=O)=O)cc2)cc1CO
not fulfilled
Cc1ccc(-c2cc(C(F)(F)F)nn2-c2ccc(S(N)(=O)=O)cc2)cc1
fulfilled
CCCCOc1nc(OCC(C)(C)O)c(-c2ccc(S(N)(=O)=O)cn2)cc1CO
not fulfilled
CC(C)(O)COc1nc(OCCCC(F)(F)F)c(CO)cc1-c1ccc(S(C)(=O)=O)cc1
fulfilled
CCCCOc1nc(OCC2(O)CCC2)c(-c2ccc(S(C)(=O)=O)cc2)cc1CO
not fulfilled
CCCOc1nc(OCC(C)(C)O)c(-c2ccc(S(C)(=O)=O)cc2)cc1CO
not fulfilled

### Prompt Hi, just wondering whether Cc1ccc(-c2ncc(Cl)cc2-c2ccc(S(C)(=O)=O)cc2)cn1 shows solubility thermodynamic of 100 µM or higher.
### Response fulfilled

### Prompt Param item: CC(C)(O)COc1nc(OCCC(F)(F)F)c(CO)cc1-c1ccc(S(C)(=O)=O)cc1
### Response not fulfilled

====

Ratio for assorted compounds
test: Ratio of drug concentration in C57BL/6J mouse colon to plasma at 10 mg/kg, po measured after 4 hr by liquid chromatographic triple-quadrupole mass spectrometric method; type: ADME, organism-based; settings: other tissue, 10 mg/kg, 4 h
Field format: numeric only.

CC(C)(O)COc1nc(OCCC(F)(F)F)c(CO)cc1-c1ccc(S(C)(=O)=O)cc1
5264

### Prompt Which measured Ratio value corresponds to CC(C)(O)COc1nc(OCCCC(F)(F)F)c(CO)cc1-c1ccc(S(C)(=O)=O)cc1 ?
### Response 4473

====

Quick list: Vd per entry.
assay: Volume of distribution at steady state in C57BL/6J mouse at 2 mg/kg, iv measured after 0.08 to 24 hrs; format: ADME, organism-based; conditions: C57BL/6J, in vivo, time 0.08-24 hrs, read-out: Vdss
Your answer should be a plain number; it is taken to be in L/kg.

CCc1cnc(OCC(C)(C)O)c(-c2ccc(S(C)(=O)=O)cc2)c1
1.35
Cc1ccc(-c2cc(C(F)(F)F)nn2-c2ccc(S(N)(=O)=O)cc2)cc1 [CELECOXIB]
0.94
Cc1ccc(-c2ncc(Cl)cc2-c2ccc(S(C)(=O)=O)cc2)cn1 [ETORICOXIB]
1.27
CC(C)(O)COc1ncc(C(F)(F)F)cc1-c1ccc(S(C)(=O)=O)cc1
1.55

Continue with the compound presented below.
### Prompt What does the data say about its Vd? Entry: CCCOc1nc(OCC(C)(C)O)c(-c2ccc(S(C)(=O)=O)cc2)cc1CO
### Response 3.05
